Cited source for all entries: patent US20130309177A1

target: somatostatin receptors on AR42J cells (rat); assay: apparent IC50; competition with ^111In-DTPA-octreotide on AR42J cells, 3 h at RT
Sequence (P30680 whole entry): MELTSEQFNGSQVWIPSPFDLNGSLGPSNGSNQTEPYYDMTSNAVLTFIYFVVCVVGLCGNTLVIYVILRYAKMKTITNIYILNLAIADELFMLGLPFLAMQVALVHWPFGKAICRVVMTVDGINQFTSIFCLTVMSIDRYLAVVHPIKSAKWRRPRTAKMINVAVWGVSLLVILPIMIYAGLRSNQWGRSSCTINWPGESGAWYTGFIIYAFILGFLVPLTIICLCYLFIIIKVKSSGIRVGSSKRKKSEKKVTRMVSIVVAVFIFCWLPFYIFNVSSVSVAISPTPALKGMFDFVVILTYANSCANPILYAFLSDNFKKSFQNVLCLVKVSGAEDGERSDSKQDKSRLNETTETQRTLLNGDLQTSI
RECORDED_METRIC: IC50

// lookup IC50 | system=somatostatin receptors on AR42J cells (rat) | key= ^19F-IMP466 (Al^19F complex of IMP 466, NOTA-D-Phe-Cys-Phe-D-Trp-Lys-Thr-Cys-Throl) (peptide) 3.6 nM
